assay: Cytotoxicity in HepAD38 cells; assay type: cell-based; details: human, Cytotoxicity CC50, HepAD38 cells, MTS assay, 0 to 100 μM
reported_property: CC50 at 14 days

The reported value for `CCOC(=O)C1=C[C@]2(CC)CCCN3CCc4c(n1c1ccccc41)[C@@H]32` in terms of CC50 at 14 days is > 100 µM

----------
tested on: HepAD38 cells; test: Cytotoxicity in HepAD38 cells; format: cell-based; conditions: read-out: Cytotoxicity CC50, MTS assay, 0 to 100 μM
reported_property: CC50
Numeric answer plus unit only.

Measured CC50 of CC[C@]12C=CCN3CC[C@]4(C(=C(C(=O)OC)C1)Nc1ccccc14)[C@@H]32 [compound 6, tabersonine] : 41.8 µM
